# protocolText: Apparent permeability from basolateral to apical side in human Caco2 cells at 50 uM by LC-MS/MS method
# Type: ADME, cell-based
# measurementContext: Caco-2
Some molecules, each annotated with its measured Papp B→A at 50 µM.
Lab book: enter the figure in ×10⁻⁶ cm/s, no units written.

Enquiry: Reported Papp B→A at 50 µM, molecule "CNc1ccc2cc(C(=O)N(Cc3ccc(-c4ccc(N(C)C)cc4)cc3)c3cccc(/C=C/C(=O)OC)c3)ccc2c1" : ____
Return: 75

New cases:
Enquiry: Reported Papp B→A at 50 µM, molecule COC(=O)/C=C/c1cccc(N(Cc2ccc(-c3ccc(N(C)C)cc3)cc2)C(=O)C2CCCCC2)c1 [FEXARAMINE] : ____
Return: 873
